- assay remarks: Beta-lactam plasma concentrations in children with severe sepsis or septic shock (HPLC)
- experimental setup: current standard dosing
observable: patients with insufficient plasma concentration (%)
Numbers only, in %.

- structure smiles: "Cc1nnc(SCC2=C(C(=O)O)N3C(=O)[C@@H](NC(=O)Cn4cnnn4)[C@H]3SC2)s1"
  endpoint value: 25
- structure smiles: "CC1(C)S[C@@H]2[C@H](NC(=O)[C@H](N)c3ccc(O)cc3)C(=O)N2[C@H]1C(=O)O"
  endpoint value: 86

For each of the molecules below, note its patients with insufficient plasma concentration.
1. C[C@@H](O)[C@H]1C(=O)N2C(C(=O)O)=C(SCCN=CN)C[C@H]12
2. CC(C)(O/N=C(\C(=O)N[C@@H]1C(=O)N2C(C(=O)[O-])=C(C[n+]3ccccc3)CS[C@H]12)c1csc(N)n1)C(=O)O

1. 0
2. 0

I am curious: what patients with insufficient plasma concentration value has been reported for C[C@@H](O)[C@H]1C(=O)N2C(C(=O)O)=C(S[C@@H]3CN[C@H](C(=O)N(C)C)C3)[C@H](C)[C@H]12 ?
50

---

- Test system: Pseudomonas aeruginosa
- assay remarks: Disk diffusion susceptibility of P. aeruginosa isolated from burned patients (P-48)
- Assay type: cell-based
- experimental setup: 485 strains from burned patients 2012-2015, disk diffusion, FSM breakpoints
Exercise: for every item that follows, state its recorded strains resistant.

As a guide, the following entries are already answered.
- compound: "CC1(C)S[C@@H]2[C@H](NC(=O)[C@H](C(=O)O)c3ccsc3)C(=O)N2[C@H]1C(=O)O [ticarcillin]"
  strains resistant: "69%"
- compound: "NCC[C@H](O)C(=O)N[C@@H]1C[C@H](N)[C@@H](O[C@H]2O[C@H](CN)[C@@H](O)[C@H](O)[C@H]2O)[C@H](O)[C@H]1O[C@H]1O[C@H](CO)[C@@H](O)[C@H](N)[C@H]1O [Amikacin]"
  strains resistant: "62%"
- compound: "CC(C)(O/N=C(\\C(=O)N[C@@H]1C(=O)N2C(C(=O)[O-])=C(C[n+]3ccccc3)CS[C@H]12)c1csc(N)n1)C(=O)O [ceftazidim]"
  strains resistant: "21%"

As a next step, examine the compound that follows.
I am curious: what strains resistant value has been reported for C[C@@H](O)[C@H]1C(=O)N2C(C(=O)O)=C(SCCN=CN)C[C@H]12 [imipenem] ?
56%
